test system: E. coli AG100A; assay: Real-time ethidium bromide accumulation assay (efflux pump inhibition); conditions: compound at 50 μM, minute 60
Please note: true applies when RFI ± SD is 0.3 or greater, and false applies otherwise.

**Query** Can Cc1ccc2nc3n(c(=O)c2c1)[C@H](Cc1c[nH]c2ccccc12)C(=O)N[C@H]3C(C)C [Compound 13c] be said to have RFI ± SD at or above 0.3?
**Result** false

**Query** Can O=C1N[C@@H](Cc2ccc(OCc3ccccc3)cc2)c2nc3c(Cl)cc(Cl)cc3c(=O)n2[C@@H]1Cc1c[nH]c2ccccc12 [Compound 13d] be said to have RFI ± SD at or above 0.3?
**Result** true

**Query** Can `CC(C)C[C@@H]1NC(=O)[C@@H](Cc2c[nH]c3ccccc23)n2c1nc1c(Cl)cc(Cl)cc1c2=O` be said to have RFI ± SD at or above 0.3?
**Result** false

**Query** Can CC(C)C[C@@H]1NC(=O)[C@@H](Cc2c[nH]c3ccccc23)n2c1nc1ccc(I)cc1c2=O [Compound 13a] be said to have RFI ± SD at or above 0.3?
**Result** true

**Query** Can CC(C)C[C@@H]1NC(=O)[C@@H](Cc2c[nH]c3ccccc23)n2c1nc1ccc(Br)cc1c2=O [Compound 13b] be said to have RFI ± SD at or above 0.3?
**Result** false

**Query** Can N#CC(C#N)=NNc1cccc(Cl)c1 [CCCP, reference compound] be said to have RFI ± SD at or above 0.3?
**Result** true

* * *

For each record, write down the corresponding RFI ± SD.
test system: E. coli AG100A; assay: Real-time ethidium bromide accumulation assay (efflux pump inhibition); conditions: compound at 100 μM, minute 60
Form: value (number only, do not type unit).

**Query** # RFI ± SD lookup, item CC(C)C[C@@H]1NC(=O)[C@H](Cc2c[nH]c3cc(F)ccc23)n2c1nc1c(Cl)cc(Cl)cc1c2=O [Compound 12c]
**Result** 4.40

**Query** # RFI ± SD lookup, item CC(C)C[C@@H]1NC(=O)[C@@H](Cc2c[nH]c3ccccc23)n2c1nc1cc(F)ccc1c2=O [Compound 12b]
**Result** 0.77

**Query** # RFI ± SD lookup, item O=C1NCc2nc3ccccc3c(=O)n2[C@@H]1Cc1c[nH]c2ccccc12 [Compound 1]
**Result** 0.12

**Query** # RFI ± SD lookup, item CC(C)C[C@@H]1NC(=O)[C@@H](Cc2c[nH]c3ccccc23)n2c1nc1ccc(F)cc1c2=O [Compound 12a]
**Result** 0.59

**Query** # RFI ± SD lookup, item C[C@@H]1NC(=O)[C@@H](Cc2c[nH]c3ccccc23)n2c1nc1ccccc1c2=O [Compound 2]
**Result** 0.26

**Query** # RFI ± SD lookup, item CC(C)C[C@@H]1NC(=O)[C@H](Cc2c[nH]c3c(Cl)cccc23)n2c1nc1c(Cl)cc(Cl)cc1c2=O [Compound 12d]
**Result** 0.23

* * *

test system: NIH/3T3 mouse fibroblast cell line; assay: Cytotoxicity assay (MTT); assay type: cell-based; conditions: NIH3T3, 24 h
For each record, write down the corresponding IC50.
Express it in µM; write the number only.

**Query** # IC50 lookup, item CC(C)C[C@@H]1NC(=O)[C@@H](Cc2c[nH]c3ccccc23)n2c1nc1cc(F)ccc1c2=O [Compound 12b]
**Result** 58

**Query** # IC50 lookup, item CC(C)C[C@@H]1NC(=O)[C@H](Cc2c[nH]c3c(Cl)cccc23)n2c1nc1c(Cl)cc(Cl)cc1c2=O [Compound 12d]
**Result** 47.2

**Query** # IC50 lookup, item COc1cccc2c1C(=O)c1c(O)c3c(c(O)c1C2=O)C[C@@](O)(C(=O)CO)C[C@@H]3O[C@H]1C[C@H](N)[C@H](O)[C@H](C)O1 [DOXO, Doxorubicin, reference compound]
**Result** 3.72

* * *

For each record, write down the corresponding RFI ± SD.
test system: S. aureus 272123; assay: Real-time ethidium bromide accumulation assay (efflux pump inhibition); settings: compound at 50 μM, minute 60
Form: value (number only, do not type unit).

**Query** # RFI ± SD lookup, item CC(C)C[C@@H]1NC(=O)[C@@H](Cc2c[nH]c3ccccc23)n2c1nc1cc(F)ccc1c2=O [Compound 12b]
**Result** 0.96

**Query** # RFI ± SD lookup, item O=C1NCc2nc3ccccc3c(=O)n2[C@@H]1Cc1c[nH]c2ccccc12 [Compound 1]
**Result** 0.23

**Query** # RFI ± SD lookup, item CC(C)C[C@@H]1NC(=O)[C@@H](Cc2c[nH]c3ccccc23)n2c1nc1ccc(Br)cc1c2=O [Compound 13b]
**Result** 1.53

**Query** # RFI ± SD lookup, item Cc1ccc2nc3n(c(=O)c2c1)[C@H](Cc1c[nH]c2ccccc12)C(=O)N[C@H]3C(C)C [Compound 13c]
**Result** 0.94

* * *

system: NIH/3T3 mouse fibroblast cell line; assay: Cytotoxicity assay (MTT); assay type: cell-based; conditions: NIH3T3, 24 h
For each record, write down the corresponding IC50.
Express it in µM; write the number only.

**Query** # IC50 lookup, item CC(C)C[C@@H]1NC(=O)[C@@H](Cc2c[nH]c3ccccc23)n2c1nc1ccc(F)cc1c2=O [Compound 12a]
**Result** 52.2

**Query** # IC50 lookup, item CC(C)C[C@@H]1NC(=O)[C@H](Cc2c[nH]c3cc(F)ccc23)n2c1nc1c(Cl)cc(Cl)cc1c2=O [Compound 12c]
**Result** 46.1

* * *

system: E. coli AG100; assay: Real-time ethidium bromide accumulation assay (efflux pump inhibition); conditions: compound at 50 μM, minute 60
valueKind: RFI ± SD
Form: value (number only, do not type unit).

**Query** # RFI ± SD lookup, item CC(C)C[C@@H]1NC(=O)[C@@H](Cc2c[nH]c3ccccc23)n2c1nc1ccc(F)cc1c2=O [Compound 12a]
**Result** −0.17

**Query** # RFI ± SD lookup, item CC(C)C[C@@H]1NC(=O)[C@@H](Cc2c[nH]c3ccccc23)n2c1nc1ccc(Br)cc1c2=O [Compound 13b]
**Result** 0.52

**Query** # RFI ± SD lookup, item `CC(C)C[C@@H]1NC(=O)[C@@H](Cc2c[nH]c3ccccc23)n2c1nc1c(Cl)cc(Cl)cc1c2=O`
**Result** 0.01

* * *

system: S. aureus 272123; test: Real-time ethidium bromide accumulation assay (efflux pump inhibition); settings: compound at 50 μM, minute 60
valueKind: RFI ± SD
Form: value (number only, do not type unit).

**Query** # RFI ± SD lookup, item CC(C)C[C@@H]1NC(=O)[C@@H](Cc2c[nH]c3ccccc23)n2c1nc1ccc(F)cc1c2=O [Compound 12a]
**Result** 0.63

**Query** # RFI ± SD lookup, item CC(C)C[C@@H]1NC(=O)[C@@H](Cc2c[nH]c3ccccc23)n2c1nc1ccc(I)cc1c2=O [Compound 13a]
**Result** 2.39

**Query** # RFI ± SD lookup, item CC(C)C[C@@H]1NC(=O)[C@@H](Cc2c[nH]c3ccccc23)n2c1nc1c(Cl)cc(Cl)cc1c2=O [Compound 4]
**Result** 1.13

**Query** # RFI ± SD lookup, item O=C1N[C@@H](Cc2ccc(OCc3ccccc3)cc2)c2nc3c(Cl)cc(Cl)cc3c(=O)n2[C@@H]1Cc1c[nH]c2ccccc12 [Compound 13d]
**Result** 0.19

**Query** # RFI ± SD lookup, item C[C@@H]1NC(=O)[C@@H](Cc2c[nH]c3ccccc23)n2c1nc1ccccc1c2=O [Compound 2]
**Result** −0.01

* * *

test system: E. coli AG100; assay: Real-time ethidium bromide accumulation assay (efflux pump inhibition); settings: compound at 50 μM, minute 60
valueKind: RFI ± SD
Form: value (number only, do not type unit).

**Query** # RFI ± SD lookup, item CC(C)C[C@@H]1NC(=O)[C@@H](Cc2c[nH]c3ccccc23)n2c1nc1ccc(I)cc1c2=O [Compound 13a]
**Result** 0.38

**Query** # RFI ± SD lookup, item CC(C)C[C@@H]1NC(=O)[C@@H](Cc2c[nH]c3ccccc23)n2c1nc1cc(F)ccc1c2=O [Compound 12b]
**Result** −0.07

**Query** # RFI ± SD lookup, item N#CC(C#N)=NNc1cccc(Cl)c1 [CCCP, reference compound]
**Result** 1.56

**Query** # RFI ± SD lookup, item O=C1NCc2nc3ccccc3c(=O)n2[C@@H]1Cc1c[nH]c2ccccc12 [Compound 1]
**Result** −0.24

**Query** # RFI ± SD lookup, item Cc1ccc2nc3n(c(=O)c2c1)[C@H](Cc1c[nH]c2ccccc12)C(=O)N[C@H]3C(C)C [Compound 13c]
**Result** 0.17

**Query** # RFI ± SD lookup, item C[C@@H]1NC(=O)[C@@H](Cc2c[nH]c3ccccc23)n2c1nc1ccccc1c2=O [Compound 2]
**Result** −0.31

**Query** # RFI ± SD lookup, item O=C1N[C@@H](Cc2ccc(OCc3ccccc3)cc2)c2nc3c(Cl)cc(Cl)cc3c(=O)n2[C@@H]1Cc1c[nH]c2ccccc12 [Compound 13d]
**Result** −0.01

**Query** # RFI ± SD lookup, item CC(C)C[C@@H]1NC(=O)[C@H](Cc2c[nH]c3cc(F)ccc23)n2c1nc1c(Cl)cc(Cl)cc1c2=O [Compound 12c]
**Result** 0.24
